Test system: Mono-Mac-6
assay_overview: cell viability (% survival relative to DMSO control, bortezomib = 0%); higher = less cytotoxic
experimental_parameters: 100 nM; 72 h
quantity: cell viability (%)
Number in %, nothing else.

Recorded cell viability, per entry:
Task: Tell us which cell viability value is on record for N#Cc1ccc(C2CCCc3cncn32)cc1 (stereo not given) [Fadrozole]
Result: 97.2

Task: Tell us which cell viability value is on record for O=C(Cc1cccc(OC(F)(F)F)c1)Nc1ccc(CCCCc2nnc(NC(=O)Cc3ccccn3)s2)nn1 [CB-839]
Result: 85

Task: Tell us which cell viability value is on record for Cn1cc(C[C@@H](N)C(=O)O)c2ccccc21 [Indoximod]
Result: 92.9

Task: Tell us which cell viability value is on record for Cn1c2cc(S(C)=O)sc2c2cnn(Cc3cccc(N)c3)c(=O)c21 (stereo not given) [TEPP-46]
Result: 103

Task: Tell us which cell viability value is on record for C#CCN[C@@H]1CCc2ccccc21 [Rasagiline]
Result: 101

***
Task: Tell us which cell viability value is on record for Clc1cc(Cl)c(OCC#CI)cc1Cl [Haloprogin]
Result: 98.8

Task: Tell us which cell viability value is on record for CCCC(CCC)C(=O)O [Valproic acid]
Result: 98.3

Task: Tell us which cell viability value is on record for OCCN1C[C@H](O)[C@@H](O)[C@H](O)[C@H]1CO [Miglitol]
Result: 98.1

Task: Tell us which cell viability value is on record for CN1CC(=O)N2[C@H](c3ccc4c(c3)OCO4)c3[nH]c4ccccc4c3C[C@@H]2C1=O [Tadalafil]
Result: 94.8

====

System: HL-60
assay_overview: cell viability (% survival relative to DMSO control); higher = less cytotoxic
experimental_parameters: 0.001 µM; 72 h; co-treatment: DMSO vehicle
quantity: cell viability (%)
Number in %, nothing else.

Recorded cell viability, per entry:
Task: Tell us which cell viability value is on record for CCCCCCCCCCCCC/C=C/[C@@H](O)[C@H](CO)N(C)C
Result: 98.6

Task: Tell us which cell viability value is on record for CC(C)(CS(=O)(=O)[O-])NC(=O)CC[N+](C)(C)CCO
Result: 95.9

Task: Tell us which cell viability value is on record for Oc1ncc(F)c(O)n1
Result: 102

***
Task: Tell us which cell viability value is on record for NS(=O)(=O)c1ccc(S(=O)(=O)Nc2cccc3c(Cl)c[nH]c23)cc1
Result: 96.4

Task: Tell us which cell viability value is on record for Nc1nc(O)c2c(CCc3ccc(C(=O)N[C@@H](CCC(=O)O)C(=O)O)cc3)c[nH]c2n1
Result: 102

Task: Tell us which cell viability value is on record for Cc1[nH]n(-c2ccccc2)c(=O)c1C1(C(F)(F)F)C(=O)N(c2ccccc2)C2=C1C(=O)CC(C)(C)C2 (centres undefined)
Result: 99.8

Task: Tell us which cell viability value is on record for C#CCN[C@@H]1CCc2ccccc21
Result: 101

Task: Tell us which cell viability value is on record for Cc1cc(O)c2c(c1)C(=O)c1cc(O)cc(O)c1C2=O
Result: 102

Task: Tell us which cell viability value is on record for OC[C@H]1N[C@@H](c2c[nH]c3c(O)ncnc23)[C@H](O)[C@@H]1O
Result: 101

====

Test system: SHI-1
assay_overview: cell viability (% survival relative to DMSO control, bortezomib = 0%); higher = less cytotoxic
experimental_parameters: 10 nM; 72 h
compounds and their reported cell viability
Number in %, nothing else.

Recorded cell viability, per entry:
Task: Tell us which cell viability value is on record for O=C(Oc1cccc(F)c1OC(=O)c1cccc(O)c1)c1cccc(O)c1
Result: 95.6

Task: Tell us which cell viability value is on record for N[C@@H](CCC(=O)N[C@@H](CS)C(=O)NCC(=O)O)C(=O)O
Result: 106

Task: Tell us which cell viability value is on record for NC(CCC(=O)NC(CSCc1ccc(Br)cc1)C(=O)NCC(=O)OC1CCCC1)C(=O)OC1CCCC1 (centres undefined)
Result: 109

Task: Tell us which cell viability value is on record for O=C(c1c2ccccc2cc2ccccc12)N1CCC(N2CCC[C@@H](C(=O)N3CCOCC3)C2)CC1
Result: 96.3

Task: Tell us which cell viability value is on record for CC(C)(CCCCCCCCCCC(C)(C)CC(=O)O)CC(=O)O
Result: 104

***
Task: Tell us which cell viability value is on record for NCc1ccc(S(N)(=O)=O)cc1 [4-Homosulfanilamide]
Result: 107

Task: Tell us which cell viability value is on record for Cn1cc(C[C@@H](N)C(=O)O)c2ccccc21
Result: 101

Task: Tell us which cell viability value is on record for CCCC(CCC)C(=O)O
Result: 94.8

Task: Tell us which cell viability value is on record for N#Cc1ccc(C2CCCc3cncn32)cc1 (centres undefined)
Result: 95.3

====

compounds and their reported cell viability
Tested on: K-562
assay_overview: cell viability (% survival relative to DMSO control, bortezomib = 0%); higher = less cytotoxic
experimental_parameters: 10000 nM; 72 h
Number in %, nothing else.

Task: Tell us which cell viability value is on record for NS(=O)(=O)c1ccc(NC(=O)Cc2ccccc2)cc1 [4-(2-Phenylacetamido)Benzenesulfonamide]
Result: 97.2

Task: Tell us which cell viability value is on record for CC(C)(CS(=O)(=O)[O-])NC(=O)CC[N+](C)(C)CCO
Result: 105

Task: Tell us which cell viability value is on record for CC1Cc2ccccc2N1NC(=O)c1ccc(Cl)c(S(N)(=O)=O)c1 (centres undefined) [Indapamide]
Result: 102

Please examine the following record next.
Task: Tell us which cell viability value is on record for CCCCCCCCCCCCC/C=C/[C@@H](O)[C@H](CO)N(C)C
Result: 85.6

====

Tested on: HL-60
assay_overview: cell viability (% survival relative to DMSO control); higher = less cytotoxic
experimental_parameters: 0.01 µM; 72 h; co-treatment: AZD3965 100 nM
molecules and their reported cell viability
Number in %, nothing else.

Recorded cell viability, per entry:
Task: Tell us which cell viability value is on record for CCCCCCCCCCCCCCOc1ccc(C(=O)O)o1 [TOFA]
Result: 101

Task: Tell us which cell viability value is on record for CCCCCCCNC=O [N-Heptyl-Formamide]
Result: 106

***
Task: Tell us which cell viability value is on record for Nc1nc(O)c2c(CCc3ccc(C(=O)N[C@@H](CCC(=O)O)C(=O)O)cc3)c[nH]c2n1 [Pemetrexed]
Result: 98.6

Task: Tell us which cell viability value is on record for CCCCCCCCCCCCC/C=C/[C@@H](O)[C@H](CO)N(C)C [N,N-Dimethylsphingosine]
Result: 103

Task: Tell us which cell viability value is on record for COc1ccc2c(c1)c(CC(=O)O)c(C)n2C(=O)c1ccc(Cl)cc1 [Indomethacine]
Result: 76.1

Task: Tell us which cell viability value is on record for Cc1nnc(-c2ccc(N3CCC(Oc4ccccc4C(F)(F)F)CC3)nn2)s1 [MF-438]
Result: 99.9

Task: Tell us which cell viability value is on record for C[C@H]1O[C@H](O[C@H]2[C@H](O)[C@@H](O)[C@@H](O[C@H]3[C@H](O)[C@@H](O)C(O)O[C@@H]3CO)O[C@@H]2CO)[C@H](O)[C@@H](O)[C@@H]1N[C@H]1C=C(CO)[C@@H](O)[C@H](O)[C@H]1O (mixture of isomers) [Acarbose]
Result: 96.8

====

compounds and their reported cell viability
Test system: KU-812
assay_overview: cell viability (% survival relative to DMSO control, bortezomib = 0%); higher = less cytotoxic
experimental_parameters: 10000 nM; 72 h
Number in %, nothing else.

Task: Tell us which cell viability value is on record for C#CCN[C@@H]1CCc2ccccc21
Result: 111

Task: Tell us which cell viability value is on record for C[C@H]1O[C@H](O[C@H]2[C@H](O)[C@@H](O)[C@@H](O[C@H]3[C@H](O)[C@@H](O)C(O)O[C@@H]3CO)O[C@@H]2CO)[C@H](O)[C@@H](O)[C@@H]1N[C@H]1C=C(CO)[C@@H](O)[C@H](O)[C@H]1O (mixture of isomers)
Result: 93.9

Task: Tell us which cell viability value is on record for Cl.OC[C@H]1NC[C@H](O)[C@@H](O)[C@H]1O
Result: 98.5

Task: Tell us which cell viability value is on record for C=C1NC(=O)c2cc(CN(C)c3ccc(C(=O)N[C@@H](CCC(=O)O)C(=O)O)s3)ccc2N1
Result: 39.1

Please examine the following record next.
Task: Tell us which cell viability value is on record for OCCN1C[C@H](O)[C@@H](O)[C@H](O)[C@H]1CO
Result: 96

====

System: THP-1
assay_overview: cell viability (% survival relative to DMSO control, bortezomib = 0%); higher = less cytotoxic
experimental_parameters: 10 nM; 72 h
quantity: cell viability (%)
Number in %, nothing else.

Task: Tell us which cell viability value is on record for O=C1N[C@@H]2[C@@H](O)[C@@H](O)[C@H](O)[C@@H](CO)N2C1=O [Kifunensine]
Result: 95.2

Task: Tell us which cell viability value is on record for CCCCCCCCCCCCC/C=C/[C@@H](O)[C@H](CO)N(C)C [N,N-Dimethylsphingosine]
Result: 100

***
Task: Tell us which cell viability value is on record for CN(C)C(=N)NC(=N)N [Metformin]
Result: 95.4
